- Test Name: Oral bioavailability in mice (LC-MS/MS of blood)
- Type: in vivo
- Experimental Conditions: mouse, whole blood, read-out: Oral Bioavailability m%F
Measured Quantity: bioavailability

input: Reported bioavailability for CCn1c(-c2cccnc2[C@H](C)OC)c2c3cc(ccc31)-c1cccc(c1)C[C@H](NC(=O)[C@H](C(C)C)N(C)C(=O)[C@H]1CCN(C(C)=O)C1)C(=O)N1CCC[C@H](N1)C(=O)OCC(C)(C)C2 [Compound 1] : what is it?
output: 5%

input: Input CCn1c(-c2cccnc2[C@H](C)OC)c2c3cc(ccc31)-c1csc(n1)C[C@H](NC(=O)[C@H]1CCO1)C(=O)N1CCC[C@H](N1)C(=O)OCC(C)(C)C2 [Compound 3]
output: 44%

input: Try the compound CCn1c(-c2cc(N3CCN(C4CC4)CC3)cnc2[C@H](C)OC)c2c3cc(ccc31)-c1csc(n1)C[C@H](NC(=O)[C@H]1[C@@H]3COC[C@@H]31)C(=O)N1CCC[C@H](N1)C(=O)OCC(C)(C)C2 [RMC-7977]
output: 63%

input: Note, next up: CCn1c(-c2cccnc2[C@H](C)OC)c2c3cc(ccc31)-c1csc(n1)C[C@H](NC(=O)[C@H](C(C)C)N(C)C(C)=O)C(=O)N1CCC[C@H](N1)C(=O)OCC(C)(C)C2 [Compound 2]
output: 0.4%
